testedTarget: human full length PIK3KA Wild-type (p110α/p85α complex) (Homo sapiens, UniProt P42336)
Construct: Recombinant, catalytically active human full length PIK3KA Wild-type and H1047R mutant were purchased as 1:1 complex; 6xHis (N); purchased EMD Millipore Sigma 14-602M
protocolDescription: PI3K-alpha kinase (PIK3CA) biochemical activity, wild-type, ADP-Glo
statedConditions: PI3K-α (PIK3CA) biochemical, PIP2diC8 lipid substrate (footnote 1)
IC50 values by entry
measuredEndpoint: IC50

CC(Nc1ccccc1C(=O)O)c1c(F)c(F)cc2c(=O)cc(-c3ccccc3)oc12 (centres unmarked)	1 to 5 µM
Cc1cc([C@@H](C)Nc2ccccc2C(=O)O)c2oc(-c3ccc(C#N)cc3)cc(=O)c2c1	< 0.5 µM
Cc1cc([C@@H](C)Nc2ccccc2C(=O)O)c2oc(-c3cccc(F)c3)cc(=O)c2c1	< 0.5 µM
Cc1cc(C(C)Nc2ccccc2C(=O)O)c2oc(-c3ccc(C4(C#N)CC4)cc3)cc(=O)c2c1 (centres unmarked)	0.5 to 1 µM
Cc1cc([C@@H](C)Nc2ccccc2C(=O)O)c2oc(-c3cccc(C#N)c3)cc(=O)c2c1	0.5 to 1 µM
Cc1cc([C@@H](C)Nc2ccccc2C(=O)O)c2oc(-c3ccccc3)cc(=O)c2c1	< 0.5 µM
Cc1cc([C@@H](C)Nc2ccccc2C(=O)O)c2oc(-c3ccc(F)cc3)cc(=O)c2c1	1 to 5 µM
Cc1cc([C@@H](C)Nc2ccc(F)cc2C(=O)O)c2oc(-c3ccccc3)cc(=O)c2c1	< 0.5 µM

Origin of the recorded values: patent US11873295B2
